- assay.system: T1, RALA, mGppNHp-bound (human, UniProt P11233 1-206)
- T1 construct: human RALA; Loaded with mGppNHp
- T1 sequence (looked up): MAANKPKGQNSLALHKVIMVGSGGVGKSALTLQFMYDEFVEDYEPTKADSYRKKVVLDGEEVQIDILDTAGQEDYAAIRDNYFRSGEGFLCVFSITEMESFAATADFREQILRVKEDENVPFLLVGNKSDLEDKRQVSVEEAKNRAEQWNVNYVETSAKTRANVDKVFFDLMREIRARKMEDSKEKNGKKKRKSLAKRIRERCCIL
- assay.comment: fluorescence polarisation; increasing concentrations of the RA/RB domain as MBP fusion protein (0.002-300 µM; or MBP alone) titrated to mGppNHp-bound RAS protein (1 µM); 30 mM Tris-HCl pH 7.4, 100 mM NaCl, 5 mM MgCl2, 3 mM DTT; Kd from a quadratic ligand-binding equation
- study.conditions: both partners purified
measurement.name: pKd
# pKd is unitless: minus log10 of the molar concentration; print number only

What value of pKd has been recorded for this entry: RASSF2-to-1 variant of the RASSF2 RA domain, MBP fusion protein (domain or fragment, human, UniProt P50749 176-264, looked up, RASSF2 RA domain (aa 176-264 of P50749, the limits of the wild-type construct) with four hotspot residues changed to those of RASSF1; source: gene synthesis (BioCat) in pMal-c5X-His vector; E. coli, purified) YNHKTSVFTPKDGSKHNVRINSTMTTPQVLKLLLNKFKIENSAEEFALYVVHTSGEKQKLKATDYPLIARILQGPCEQISKVFLMEKDQ 4.31
